Recorded binding signal for the following binders
Target: T1, Fur (ferric uptake regulator) (Neisseria gonorrhoeae F62, UniProt Q51008 1-144)
T1 sequence: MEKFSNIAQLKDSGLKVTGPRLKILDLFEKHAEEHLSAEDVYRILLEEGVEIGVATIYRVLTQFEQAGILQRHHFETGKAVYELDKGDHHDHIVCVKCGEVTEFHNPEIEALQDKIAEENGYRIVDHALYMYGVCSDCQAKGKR
Assay: IRIS; 400 nM Fur (concentration implied); ~1 dimer/dsDNA; 20 mM Tris-Cl pH 7.9, 5 mM MgCl2, 40 mM KCl, 0.125 mM MnCl2, 2 mM DTT, 10% glycerol, 0.19 ug/uL poly dIdC (EMSA also 3.125 ug/uL BSA), RT; IRIS 2 hr, EMSA 30 min with 12.5 nM probe
Settings: protein: recombinant; tags: N-terminal 6xHis (pET15b) cleaved with thrombin and removed; chain copies: 2; label: surface-immobilized; blunt

# Binder, binding signal
data = [
    ("NGO0155 promoter probe (dsDNA, 5' amino-C6 on strand 1) DNA 1: GATATTTTGTGCTAAAAATTTATATAATATTTAAATTAATATCAAGTTA DNA 2: TAACTTGATATTAATTTAAATATTATATAAATTTTTAGCACAAAATATC", "1.9 nm DSH"),
    ("NGO1189 promoter probe (dsDNA, 5' amino-C6 on strand 1) DNA 1: ACTGCCGGTTTGAAAAAAGAATCCATATCGGTGTTTCCGCGCAGGAGGC DNA 2: GCCTCCTGCGCGGAAACACCGATATGGATTCTTTTTTCAAACCGGCAGT", "2 nm DSH"),
    ("NGO0304 promoter probe (dsDNA, 5' amino-C6 on strand 1) DNA 1: GAACGAAAATTGATAAAACAAAAGTTAATTAATTGATTGAGAACATAAC DNA 2: GTTATGTTCTCAATCAATTAATTAACTTTTGTTTTATCAATTTTCGTTC", "2 nm DSH"),
    ("NGO0899 promoter probe (dsDNA, 5' amino-C6 on strand 1) DNA 1: TTTTATGCCGAAAATTGATTTTTTTTAAATTTTTTGTTTCTAAAATTTT DNA 2: AAAATTTTAGAAACAAAAAATTTAAAAAAAATCAATTTTCGGCATAAAA", "2.2 nm DSH"),
]
